- Target Under Test: Voltage-gated L-type calcium channel (Rattus norvegicus, UniProt P22002+Q02485+P27732)
- Assay Details: Percentage decrease in blood pressure at a dose of 135 uM/kg for 12-18 hr in spontaneously hypertensive rats.
- Assay type: functional, tissue-based
Criterion: Decrease in blood pressure meeting or surpassing 10%. Met: Yes. Not met: No.

Molecule | Target Under Test | Discrete Label
COc1ccc([C@@H]2Cc3cc(OC(=O)C(C)(C)C)ccc3N(CCN(C)C)C(=O)[C@@H]2OC(C)=O)cc1 | Voltage-gated L-type calcium channel (Rattus norvegicus, UniProt P22002+Q02485+P27732) | Yes

[ask] Textbook exercise: given the entry COc1ccc([C@@H]2Cc3c(cccc3C(F)(F)F)N(C(C)CN(C)C)C(=O)[C@@H]2C)cc1 (stereo in doubt; 15o) , state whether its Decrease in blood pressure is greater than or equal to 10%.
[reply] Yes

[ask] Textbook exercise: given the entry C=CC[C@H]1C(=O)N(CCN(C)C)c2ccccc2C[C@H]1c1ccc(OC)cc1 , state whether its Decrease in blood pressure is greater than or equal to 10%.
[reply] Yes

[ask] Textbook exercise: given the entry COc1ccc([C@@H]2Cc3c(OC)cccc3N(CCN(C)C)C(=O)[C@@H]2C)cc1 , state whether its Decrease in blood pressure is greater than or equal to 10%.
[reply] No

[ask] Textbook exercise: given the entry COc1ccc([C@@H]2Cc3c(cccc3C(F)(F)F)N(CCN(C)C)C(=O)[C@@H]2Cc2ccccc2)cc1 , state whether its Decrease in blood pressure is greater than or equal to 10%.
[reply] No

[ask] Textbook exercise: given the entry CCC[C@H]1C(=O)N(CCN(C)C)c2ccccc2C[C@H]1c1ccc(OC)cc1 , state whether its Decrease in blood pressure is greater than or equal to 10%.
[reply] Yes

[ask] Textbook exercise: given the entry COc1ccc([C@@H]2Cc3cc(SC(C)(C)C)ccc3N(CCN(C)C)C(=O)[C@@H]2OC(C)=O)cc1 , state whether its Decrease in blood pressure is greater than or equal to 10%.
[reply] Yes

---

- Assay Details: Partition coefficient (logP)
- Type: physicochemical
- Condition Info: octanol/water
Measured logP of individual entries
Respond using a number only.

[ask] Please look up its logP: COc1ccc([C@@H]2Cc3c(cccc3[N+](=O)[O-])N(CCN(C)C)C(=O)[C@@H]2OC(C)=O)cc1
[reply] 1.7

---

Measured Decrease in blood pressure of individual entries
- Target Under Test: Voltage-gated L-type calcium channel (Rattus norvegicus, UniProt P22002+Q02485+P27732)
- Assay Details: Percentage decrease in blood pressure at a dose of 135 uM/kg for 0-6 h in spontaneously hypertensive rats.
- Assay type: functional, tissue-based
Give the value in % but do not write % after it.

Study these solved cases before continuing.
Compound | Reported Property | Recorded Value
COc1ccc([C@@H]2Cc3c(cccc3C(F)(F)F)N(CCN(C(C)C)C(C)C)C(=O)[C@@H]2C)cc1 | Decrease in blood pressure | 14
CNc1ccc([C@@H]2Cc3c(cccc3C(F)(F)F)N(CCN(C)C)C(=O)[C@@H]2C)cc1 | Decrease in blood pressure | 14
COc1ccc([C@@H]2Cc3cc(Cl)ccc3N(CCN(C)C)C(=O)[C@@H]2OC(C)=O)cc1 | Decrease in blood pressure | 13

[ask] Please look up its Decrease in blood pressure: CSc1ccc([C@@H]2Cc3c(cccc3C(F)(F)F)N(CCN(C)C)C(=O)[C@@H]2C)cc1
[reply] 12

[ask] Please look up its Decrease in blood pressure: COc1ccc([C@@H]2Cc3c(cccc3C(F)(F)F)N(C(C)CN(C)C)C(=O)[C@@H]2C)cc1 (stereo in doubt; 15n)
[reply] 15

[ask] Please look up its Decrease in blood pressure: COc1ccc([C@@H]2Cc3c(cccc3[N+](=O)[O-])N(CCN(C)C)C(=O)[C@@H]2OC(C)=O)cc1
[reply] 16

[ask] Please look up its Decrease in blood pressure: C#CCN(C)CCN1C(=O)[C@H](OC(C)=O)[C@H](c2ccc(OC)cc2)Cc2c1cccc2C(F)(F)F
[reply] 26

[ask] Please look up its Decrease in blood pressure: COc1ccc([C@@H]2Cc3cc(Sc4ccccc4)ccc3N(CCN(C)C)C(=O)[C@@H]2OC(C)=O)cc1
[reply] 15

---

- Target Under Test: Voltage-gated L-type calcium channel (Rattus norvegicus, UniProt P22002+Q02485+P27732)
- Assay Details: Percentage decrease in blood pressure at a dose of 135 uM/kg for 0-6 h in spontaneously hypertensive rats.
- Format: functional, tissue-based
Measured Decrease in blood pressure of individual entries
Give the value in % but do not write % after it.

Study these solved cases before continuing.
Test Smiles | Unit Spec | Decrease in blood pressure
COc1ccc([C@@H]2Cc3cc(C(F)(F)F)ccc3N(CCN(C)C)C(=O)[C@@H]2CC(C)=O)cc1 | % | 23
COc1ccc([C@@H]2Cc3c(C#N)cccc3N(CCN(C)C)C(=O)[C@@H]2OC(C)=O)cc1 | % | 9

[ask] Please look up its Decrease in blood pressure: COc1ccc([C@@H]2Cc3c(OC)cccc3N(CCN(C)C)C(=O)[C@@H]2OC(C)=O)cc1
[reply] 0

[ask] Please look up its Decrease in blood pressure: COc1ccc([C@@H]2Cc3c(C(=O)O)cccc3N(CCN(C)C)C(=O)[C@@H]2OC(C)=O)cc1
[reply] 8

[ask] Please look up its Decrease in blood pressure: COc1ccc([C@@H]2Cc3cc(C(F)(F)F)ccc3N(CCN(C)C)C(=O)[C@@H]2NC(C)=O)cc1
[reply] 12

[ask] Please look up its Decrease in blood pressure: COc1ccc([C@H]2CC(=O)N(CCN(C)C)c3cccc(C(F)(F)F)c3C2)cc1
[reply] 2

[ask] Please look up its Decrease in blood pressure: COc1ccc([C@@H]2Cc3c(cccc3C(F)(F)F)N(CCCN(C)C)C(=O)[C@@H]2C)cc1
[reply] 24

[ask] Please look up its Decrease in blood pressure: CNC(=O)Oc1ccc2c(c1)C[C@@H](c1ccc(OC)cc1)[C@@H](OC(C)=O)C(=O)N2CCN(C)C
[reply] 7

[ask] Please look up its Decrease in blood pressure: C=CCN(C)CCN1C(=O)[C@H](OC(C)=O)[C@H](c2ccc(OC)cc2)Cc2c1cccc2C(F)(F)F
[reply] 28

[ask] Please look up its Decrease in blood pressure: COc1ccc([C@@H]2Cc3cc(OC(=O)C(C)(C)C)ccc3N(CCN(C)C)C(=O)[C@@H]2OC(C)=O)cc1
[reply] 13

[ask] Please look up its Decrease in blood pressure: C=CC[C@H]1C(=O)N(CCN(C)C)c2cccc(C(F)(F)F)c2C[C@H]1c1ccc(OC)cc1
[reply] 24

[ask] Please look up its Decrease in blood pressure: COc1ccc([C@@H]2Cc3c(C(=O)OCc4ccccc4)cccc3N(CCN(C)C)C(=O)[C@@H]2OC(C)=O)cc1
[reply] 4

[ask] Please look up its Decrease in blood pressure: COc1ccc([C@@H]2Cc3cc(SC)ccc3N(CCN(C)C)C(=O)[C@@H]2OC(C)=O)cc1
[reply] 19

[ask] Please look up its Decrease in blood pressure: COc1ccc([C@@H]2Cc3c(cccc3C(F)(F)F)N(CCN3CCCC3)C(=O)[C@@H]2C)cc1
[reply] 8

[ask] Please look up its Decrease in blood pressure: COc1ccc([C@@H]2Cc3cc(C(F)(F)F)ccc3N(CCN(C)C)C(=O)[C@@H]2SC(C)=O)cc1
[reply] 13

[ask] Please look up its Decrease in blood pressure: C[C@H]1C(=O)N(CCN(C)C)c2cccc(C(F)(F)F)c2C[C@H]1c1ccc(O)cc1
[reply] 10

[ask] Please look up its Decrease in blood pressure: COc1ccc([C@@H]2Cc3cc(OC)ccc3N(CCN(C)C)C(=O)[C@@H]2OC(C)=O)cc1
[reply] 15

---

- Target Under Test: Voltage-gated L-type calcium channel (Rattus norvegicus, UniProt P22002+Q02485+P27732)
- Assay Details: Percentage decrease in blood pressure at a dose of 135 uM/kg for 12-18 hr in spontaneously hypertensive rats.
- Type: functional, tissue-based
Reported Property: Decrease in blood pressure (%)
Give the value in % but do not write % after it.

Study these solved cases before continuing.
Test Smiles | Reported Property | Recorded Value
COc1ccc([C@@H]2Cc3cc(Oc4ccccc4)ccc3N(CCN(C)C)C(=O)[C@@H]2OC(C)=O)cc1 | Decrease in blood pressure | 16
CNCCN1C(=O)[C@H](OC(C)=O)[C@H](c2ccc(OCCOC)cc2)Cc2c1cccc2C(F)(F)F | Decrease in blood pressure | 7
COc1ccc([C@@H]2Cc3c(C)cccc3N(CCN(C)C)C(=O)[C@@H]2OC(C)=O)cc1 | Decrease in blood pressure | 12

# input for lookup
[ask] Lookup: Decrease in blood pressure / Voltage-gated L-type calcium channel (Rattus norvegicus, UniProt P22002+Q02485+P27732) / CNCCN1C(=O)[C@H](OC(C)=O)[C@H](c2ccc(OCOC)cc2)Cc2c1cccc2C(F)(F)F
[reply] 8
